- TARGET_OF_ASSAY: Hepatitis C virus NS3 protease (Hepatitis C virus)
- ASSAY_METHOD_TEXT: Inhibitory activity evaluated in the HCV protease binding assay
MEASUREMENT_TYPE: IC50 (nM)

MOLECULE	RESULT_VALUE
O=C1OC[C@H]2O[C@@H](Oc3cc(O)c4c(c3)OC(c3ccccc3)CC4=O)[C@H](O)[C@@H](O)[C@@H]2OC(=O)c2cc(O)c(O)c(O)c2-c2c1cc(O)c(O)c2O (stereo partly specified)	2800
